System: Escherichia coli TOP10;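 note: peptides expressed intracellularly from a pBAD plasmid library in pooled LB shake-flask culture, induced with 0.3% L-arabinose, DNA abundance read by NGS, three biological replicates, DESeq2 with apeglm shrinkage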
protocol.summary: shrunken log2 fold change of peptide-encoding DNA abundance (4.5 h post-induction vs induction); higher = less antimicrobial activity (less host growth inhibition)
condition.set: time post-induction: 4.5 h; library: site-saturation at positions 5, 18, 19, 20
Measured shrunken log2 fold change of individual entries

primary.sequence: RRIRERPPRLPRPRPRPGWQPRP
shrunken log2 fold change: 0.0683
--
primary.sequence: RRIRARPPRLPRPRPRPNYIPRP
shrunken log2 fold change: -0.414
--
primary.sequence: RRIRKRPPRLPRPRPRPAIIPRP
shrunken log2 fold change: -0.0297
--
primary.sequence: RRIRPRPPRLPRPRPRPTVGPRP
shrunken log2 fold change: 0.555
--
primary.sequence: RRIRGRPPRLPRPRPRPPGNPRP
shrunken log2 fold change: 0.432
--
primary.sequence: RRIRHRPPRLPRPRPRPFLRPRP
shrunken log2 fold change: -0.173
--
primary.sequence: RRIRLRPPRLPRPRPRPFFTPRP
shrunken log2 fold change: -0.144
--
primary.sequence: RRIRVRPPRLPRPRPRPMKSPRP
shrunken log2 fold change: 3.02
